biological target: Human BCMA (human) (UniProt Q02223); experiment: SPR, IgG on chip, huBCMA analyte
So basically: is koff under 0.003 s⁻¹? Then True. Not under? Then False.

Illustrative cases are given below, each with its answer.
binder | category
C01_Rd4_6nM_C12 (antibody, V domains shown, IgG; also called PC1C12) VH: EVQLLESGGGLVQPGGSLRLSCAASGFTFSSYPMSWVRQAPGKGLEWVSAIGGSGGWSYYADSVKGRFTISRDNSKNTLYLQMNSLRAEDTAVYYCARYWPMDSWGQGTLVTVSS VL: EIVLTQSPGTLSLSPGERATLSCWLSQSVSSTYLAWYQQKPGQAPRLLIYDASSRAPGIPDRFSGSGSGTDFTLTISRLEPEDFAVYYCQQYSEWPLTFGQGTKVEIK | False
A02_Rd4_6nM_C08 (antibody, V domains shown, IgG) VH: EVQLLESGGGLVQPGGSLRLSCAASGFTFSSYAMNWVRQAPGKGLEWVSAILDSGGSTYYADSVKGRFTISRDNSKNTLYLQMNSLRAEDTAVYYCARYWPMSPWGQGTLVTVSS VL: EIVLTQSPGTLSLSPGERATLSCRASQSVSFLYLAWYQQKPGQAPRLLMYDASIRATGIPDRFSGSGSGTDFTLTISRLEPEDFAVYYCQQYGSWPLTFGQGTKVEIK | True
A02_Rd4_0.6nM_C18 (antibody, V domains shown, IgG) VH: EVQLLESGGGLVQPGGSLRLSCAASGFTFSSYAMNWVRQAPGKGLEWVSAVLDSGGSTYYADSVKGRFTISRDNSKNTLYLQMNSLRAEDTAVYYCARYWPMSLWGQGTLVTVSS VL: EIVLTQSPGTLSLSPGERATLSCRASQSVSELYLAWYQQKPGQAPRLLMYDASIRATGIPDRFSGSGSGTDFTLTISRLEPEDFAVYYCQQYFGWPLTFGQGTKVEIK | True
COMBO_Rd4_6nM_C11 (antibody, V domains shown, IgG) VH: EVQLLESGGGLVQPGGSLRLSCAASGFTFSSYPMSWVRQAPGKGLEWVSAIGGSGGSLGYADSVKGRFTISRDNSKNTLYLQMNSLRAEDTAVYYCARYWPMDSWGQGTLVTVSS VL: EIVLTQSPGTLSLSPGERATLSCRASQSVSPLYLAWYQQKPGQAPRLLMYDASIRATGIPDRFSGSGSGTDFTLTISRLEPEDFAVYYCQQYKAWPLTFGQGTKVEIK | True

Switching to the query record.
Hello, is koff of the following binder strictly smaller than 0.003 s⁻¹? C01_Rd4_6nM_C24 (antibody, V domains shown, IgG) VH: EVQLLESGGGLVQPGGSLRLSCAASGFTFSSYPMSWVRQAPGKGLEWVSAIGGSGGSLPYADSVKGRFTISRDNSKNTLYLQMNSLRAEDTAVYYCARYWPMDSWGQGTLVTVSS VL: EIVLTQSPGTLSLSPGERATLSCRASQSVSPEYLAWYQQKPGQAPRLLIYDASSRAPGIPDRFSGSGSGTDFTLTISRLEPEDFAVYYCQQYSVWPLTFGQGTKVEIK
False
